Data provenance is the DeepSol protein solubility set.

# PROTOCOL_DETAILS: soluble on expression in E. coli; label from the status in PepcDB or PDB records
MEASURED_QUANTITY: soluble on expression in E. coli

Example results:
MKIAIINMGNNVINFKTVPSSETIYLFKVISEMGLNVDIISLKNGVYTKSFDEVDVNDYDRLIVVNSSINFFGGKPNLAILSAQKFMAKYKSKIYYLFTDIRLPFSQSWPNVKNRPWAYLYTEEELLIKSPIKVISQGINLDIAKAAHKKVDNVIEFEYFPIEQYKIHMNDFQLSKPTKKTLDVIYGGSFRSGQRESKMVEFLFDTGLNIEFFGNAREKQFKNPKYPWTKAPVFTGKIPMNMVSEKNSQAIAALIIGDKNYNDNFITLRVWETMASDAVMLIDEEFDTKHRIINDARFYVNNRAELIDRVNELKHSDVLRKEMLSIQHDILNKTRAKKAEWQDAFKKAIDL: soluble
GHMIQESTMEMTNAQRLILSNQYKMMTMLDPANAERYRRLQTIIERGYGLQMRELDREFGELKEETCRTIIDIMEMYHALHVSWSNLQDQQSIDERRVTFLGFDAATEARYLGYVRFMVNVEGRYTHFDAGTHGFNAQTPMWEKYQRMLNVWHACPRQYHLSANEINQIINA: soluble
MGSDKIHHHHHHMLCENCHFNEAEVKLTVKGIDSTHEKWVCSVCAQGENPWLHSNDDNTYHTHQDDIEEAFVVKQILQHLAAKHGINFHEMAFKEEKKCPTCQMTLKDIAHVGKLGCADCYATFKEDIIDIVQRVQGGQFEHVGKTPQSSYKKLAIKKQIEEKSKYLNKLIDGQEFEEAAIVRDEIKALKSESEVSHDE: not soluble
MFQLLAVCPMGLEAVVAREIQELGYETNVENGRIFFEGDASAIVKANLWLRTADRIKIVVGRFNATTFDELFEQTKALPWESIIDKEGNFPVQGRSVKSTLHSVPDCQAITKKAIVERLRRAYNEKGWLNESGAKYPVEVAILKDNVLLTIDTSGSGLNRRGYRLAQGEAPIKETLAASLIRLANWKGDTPLIDPFCGSGTIAIEACLIAQNIAPGFNREFVSEQWNIMPANIYDDYRDEADKMADYDKEIEVYASDIDPEMVEIAKRNAEEVGLSDIIKFSVKDVNTLTIDTEEPVALIGNPPYGERIGDREEVEEMYRYIGKLMKQHPFLSTYILTSNKEFEYLVNRKATKRRKLFNGYIECTYYQYWGKKTERKTIEN: not soluble

Now, please, on to the next sequence.
Ask: Give the measured soluble on expression in E. coli of MAHHHHHHMRCCSTALRTGRRGPGGWTEPRLQQATSTDFMRDSTGTGGDNNNNNNNDGGKGPSSALKRHFNVNDFSMIERQQMTLTKLMRITMDATFKPKDPDSRTYGGDGATQRAALREELKTMDSRIVPFAHEEILNDYLKNIVELSGPSGQRYDREMLRGRLVGLLFFTETDRSLAFMRLLREFHQRHRRDFVVVAISLGGKEMMDITRQHGFYHCSHRDGATWVQRDTGLMVRPWTPLPRLIVVNGTSGEEITSSGVTAVKAHPNTCFEKWKNGEEGCDWWDYIKTFYM .
Reply: soluble

###

# PROTOCOL_DETAILS: soluble on expression in E. coli; label from the status in PepcDB or PDB records
MEASURED_QUANTITY: soluble on expression in E. coli

MLSAKGPQMRAFTQRVAAFSTQLQIDPIPIVFVGKGTTPRQNSLLGPNDSQYPFQGDVSFAHKPLSIRQQVENSKIERVMDDTEHNLINLLSNTNIEVDRTHLAQLKEEAMEEIQANAADVEIELSAIEAPKLLKKEMKYLFPQMETQKMNNVTVFNLTQKSEFDMKAWSEAMEEEREKLTASFIMSANAICSTLHRFGYWADFIDPSSGRPYMGDYTNHTLFETNDAYKQMGFKIEDLGCCKVLQHACWGSNAFVGTIFTDAPVDGDAVRDILKKVTQEIDE: not soluble
SVDYVFNKVMQPHQQMRIRVALGIEDDLRGGGYNVDQSKIAIGSGGFMGKGFLKGTQTKLKYVPEQDTDFIFCTVGEEQG: not soluble
MAHHHHHHMVVSTGEFDHPPFQFRQRHTFNTTPLHDANRFGGRTAYLREIGPVNIKKQGRRFKKDPRTVQFNVDVWCAQQTLRKRWKQRDWEVIEIPFRLVPREQQRVIPELYTDIPQMTDPARNDFSNIRNKVYDREELQGVLFPAAGTMLYPPLQRVDKQAMTLDKYL: not soluble
